Sourced from PubChem BioAssay AID1963986

test system: 171881-019-R-J1-PDC tumor spheroid viability; assay: Anticancer human tumor 171881-019-R-J1-PDC patient-derived invasive breast carcinoma cell line growth inhibition [PI3K]; conditions: curve of first compound; second compound 0.00316 µM; spheroids with HUVEC and MSC
assay metric: IC50 (nM)
Give a bare numeral; the unit nM is implied.

| compound | tested target | unit abbrev | test value |
| --- | --- | --- | --- |
| CC(C)NCC(C(=O)N1CCN(c2ncnc3c2C(C)CC3O)CC1)c1ccc(Cl)cc1 (stereo not given) + CC(Nc1ccc2c(c1)OCCn1cc(N3C(=O)OCC3C(F)F)nc1-2)C(N)=O | 171881-019-R-J1-PDC tumor spheroid viability | nM | 304 |

Would you kindly look at the next entry?
Entry Cn1nccc1Nc1nccc(-c2ccn(C(CO)c3ccc(Cl)c(F)c3)c(=O)c2)n1 (stereo not given) + COc1c(OCCCN2CCOCC2)ccc2c3n(c(=NC(=O)c4cnc(N)nc4)nc12)CCN3 , tested on 171881-019-R-J1-PDC tumor spheroid viability, has a reported IC50 of 38.2

====

system: 171881-019-R-J1-PDC tumor spheroid viability; assay: Anticancer human tumor 171881-019-R-J1-PDC cell line growth inhibition [PI3K]; conditions: second compound 0.316 µM; first compound 0.316 µM; stronger effect = lower value; spheroids with HUVEC and MSC;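 also: spheroids exposed to compound for 7 days before viability read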;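 as to viability, T/C: 100% = DMSO vehicle-treated spheroids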
// reported viability, T/C per item
Give a bare numeral; the unit % is implied.

Example results:
| molecule | test value |
| --- | --- |
| C=CC(=O)N1CCN(c2nc(=O)n(-c3c(C)ccnc3C(C)C)c3nc(-c4c(O)cccc4F)c(F)cc23)C(C)C1 (stereo unspecified) + COc1c(OCCCN2CCOCC2)ccc2c3n(c(=NC(=O)c4cnc(N)nc4)nc12)CCN3 | 2.68 |
| Cn1ncc(Cl)c1-c1cc(C(=O)NC(CN)Cc2cccc(F)c2)sc1Cl (stereo unspecified) + CC(Nc1ncnc2nc[nH]c12)c1cc2cccc(Cl)c2c(=O)n1-c1ccccc1 | 32.8 |
| C[C@@H](NC(=O)c1ncnc(N)c1Cl)c1ncc(C(=O)Nc2cc(C(F)(F)F)c(Cl)cn2)s1 + COc1c(OCCCN2CCOCC2)ccc2c3n(c(=NC(=O)c4cnc(N)nc4)nc12)CCN3 | 2.28 |
| C#Cc1c(F)ccc2cc(O)cc(-c3ncc4c(N5CC6CCC(C5)N6)nc(OCC56CCCN5CC(F)C6)nc4c3F)c12 (stereo unspecified) + COc1c(OCCCN2CCOCC2)ccc2c3n(c(=NC(=O)c4cnc(N)nc4)nc12)CCN3 | 1.34 |
| Cn1ncc(Cl)c1-c1cc(C(=O)NC(CN)Cc2cccc(F)c2)sc1Cl (stereo unspecified) + COc1c(OCCCN2CCOCC2)ccc2c3n(c(=NC(=O)c4cnc(N)nc4)nc12)CCN3 | 1.74 |
| CNC(=O)c1ccc(N2C(=S)N(c3ccc(C#N)c(C(F)(F)F)c3)C(=O)C2(C)C)cc1F + COc1c(OCCCN2CCOCC2)ccc2c3n(c(=NC(=O)c4cnc(N)nc4)nc12)CCN3 | 2.25 |
| CNC(=O)c1ccc(N2C(=S)N(c3ccc(C#N)c(C(F)(F)F)c3)C(=O)C2(C)C)cc1F + Cc1nc(NC(=O)N2CCCC2C(N)=O)sc1-c1ccnc(C(C)(C)C(F)(F)F)c1 | 50.3 |
| CCN1CCN(Cc2ccc(Nc3ncc(F)c(-c4cc(F)c5nc(C)n(C(C)C)c5c4)n3)nc2)CC1 + Cc1nc(NC(=O)N2CCCC2C(N)=O)sc1-c1ccnc(C(C)(C)C(F)(F)F)c1 | 80.7 |
| Cn1nccc1Nc1nccc(-c2ccn(C(CO)c3ccc(Cl)c(F)c3)c(=O)c2)n1 (stereo unspecified) + CC(Nc1ccc2c(c1)OCCn1cc(N3C(=O)OCC3C(F)F)nc1-2)C(N)=O | 10.6 |
| C[C@@H](NC(=O)c1ncnc(N)c1Cl)c1ncc(C(=O)Nc2cc(C(F)(F)F)c(Cl)cn2)s1 + CC(Nc1ncnc2nc[nH]c12)c1cc2cccc(Cl)c2c(=O)n1-c1ccccc1 | 93.2 |

Given item Cn1nccc1Nc1nccc(-c2ccn(C(CO)c3ccc(Cl)c(F)c3)c(=O)c2)n1 (stereo unspecified) + CC(Nc1ncnc2nc[nH]c12)c1cc2cccc(Cl)c2c(=O)n1-c1ccccc1 , the value recorded as its viability, T/C is 56.9

====

// reported IC50 per item
test system: 171881-019-R-J1-PDC tumor spheroid viability; assay: Anticancer human tumor 171881-019-R-J1-PDC cell line growth inhibition [PI3K]; conditions: curve of first compound; second compound 1 µM; spheroids with HUVEC and MSC;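 also: spheroids exposed to compound for 7 days before viability read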

Example results:
| compound | assay metric | test value |
| --- | --- | --- |
| CCCS(=O)(=O)Nc1ccc(F)c(C(=O)c2c[nH]c3ncc(-c4ccc(Cl)cc4)cc23)c1F + COc1c(OCCCN2CCOCC2)ccc2c3n(c(=NC(=O)c4cnc(N)nc4)nc12)CCN3 | IC50 | < 31.6 nM |
| Cn1ncnc1[C@H]1c2n[nH]c(=O)c3cc(F)cc(c23)N[C@@H]1c1ccc(F)cc1 + CC(Nc1ccc2c(c1)OCCn1cc(N3C(=O)OCC3C(F)F)nc1-2)C(N)=O | IC50 | < 0.316 nM |
| C=CC(=O)N1CCN(c2nc(=O)n(-c3c(C)ccnc3C(C)C)c3nc(-c4c(O)cccc4F)c(F)cc23)C(C)C1 (stereo not given) + COc1c(OCCCN2CCOCC2)ccc2c3n(c(=NC(=O)c4cnc(N)nc4)nc12)CCN3 | IC50 | < 31.6 nM |
| CC(=O)c1c(C)c2cnc(Nc3ccc(N4CCNCC4)cn3)nc2n(C2CCCC2)c1=O + CC(Nc1ncnc2nc[nH]c12)c1cc2cccc(Cl)c2c(=O)n1-c1ccccc1 | IC50 | > 100 nM |

Given item CC1(C)CCC(CN2CCN(c3ccc(C(=O)NS(=O)(=O)c4ccc(NCC5CCOCC5)c([N+](=O)[O-])c4)c(Oc4cnc5[nH]ccc5c4)c3)CC2)=C(c2ccc(Cl)cc2)C1 + CC(Nc1ccc2c(c1)OCCn1cc(N3C(=O)OCC3C(F)F)nc1-2)C(N)=O , the value recorded as its IC50 is < 31.6 nM

====

System: 171881-019-R-J1-PDC tumor spheroid viability
Test: Anticancer human tumor 171881-019-R-J1-PDC cell line growth inhibition [PI3K];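 also: spheroids exposed to compound for 7 days before viability read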;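 as to viability, T/C: 100% = DMSO vehicle-treated spheroids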
Details: second compound 1 µM; first compound 1 µM; stronger effect = lower value; spheroids with HUVEC and MSC
Source text: Combinatorial screen of targeted agents with the PI3K inhibitors inavolisib, alpelisib, duvelisib, and copanlisib in multi-cell type tumor spheroids A high-throughput screen of multi-cell type tumor spheroids was designed to identify active combinations of targeted small molecules and PI3K pathway inhibitors. […] Compounds. […] If the clinical Cmax for an agent had not been determined, the highest concentration tested was 10 microM. […]
// reported viability, T/C per item
Give a bare numeral; the unit % is implied.

| molecule | assay metric | unit abbrev | test value |
| --- | --- | --- | --- |
| CC1(C)CCC(CN2CCN(c3ccc(C(=O)NS(=O)(=O)c4ccc(NCC5CCOCC5)c([N+](=O)[O-])c4)c(Oc4cnc5[nH]ccc5c4)c3)CC2)=C(c2ccc(Cl)cc2)C1 + Cc1nc(NC(=O)N2CCCC2C(N)=O)sc1-c1ccnc(C(C)(C)C(F)(F)F)c1 | viability, T/C | % | 33.4 |

Given item CC(Cn1ccc(-c2ccc(C#N)c(Cl)c2)n1)NC(=O)c1cc(C(C)O)[nH]n1 (centres undefined) + Cc1nc(NC(=O)N2CCCC2C(N)=O)sc1-c1ccnc(C(C)(C)C(F)(F)F)c1 , the value recorded as its viability, T/C is 30.8

Given item CC1(C)CCC(CN2CCN(c3ccc(C(=O)NS(=O)(=O)c4ccc(NCC5CCOCC5)c([N+](=O)[O-])c4)c(Oc4cnc5[nH]ccc5c4)c3)CC2)=C(c2ccc(Cl)cc2)C1 + COc1c(OCCCN2CCOCC2)ccc2c3n(c(=NC(=O)c4cnc(N)nc4)nc12)CCN3 , the value recorded as its viability, T/C is 0.95

Given item C=CC(=O)N1CCN(c2nc(=O)n(-c3c(C)ccnc3C(C)C)c3nc(-c4c(O)cccc4F)c(F)cc23)C(C)C1 (centres undefined) + COc1c(OCCCN2CCOCC2)ccc2c3n(c(=NC(=O)c4cnc(N)nc4)nc12)CCN3 , the value recorded as its viability, T/C is 1.41

====

tested on: 171881-019-R-J1-PDC tumor spheroid viability; test: Anticancer human tumor 171881-019-R-J1-PDC cell line growth inhibition [PI3K]; conditions: second compound 0.316 µM; first compound 0.316 µM; stronger effect = lower value; spheroids with HUVEC and MSC;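 also: spheroids exposed to compound for 7 days before viability read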;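 as to viability, T/C: 100% = DMSO vehicle-treated spheroids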
// reported viability, T/C per item
Give a bare numeral; the unit % is implied.

Example results:
| compound | tested target | unit abbrev | test value |
| --- | --- | --- | --- |
| CC1(C)CCC(CN2CCN(c3ccc(C(=O)NS(=O)(=O)c4ccc(NCC5CCOCC5)c([N+](=O)[O-])c4)c(Oc4cnc5[nH]ccc5c4)c3)CC2)=C(c2ccc(Cl)cc2)C1 + CC(Nc1ncnc2nc[nH]c12)c1cc2cccc(Cl)c2c(=O)n1-c1ccccc1 | 171881-019-R-J1-PDC tumor spheroid viability | % | 81.9 |
| CC(C)NCC(C(=O)N1CCN(c2ncnc3c2C(C)CC3O)CC1)c1ccc(Cl)cc1 (configuration not stated) + CC(Nc1ccc2c(c1)OCCn1cc(N3C(=O)OCC3C(F)F)nc1-2)C(N)=O | 171881-019-R-J1-PDC tumor spheroid viability | % | 23.5 |
| CCN1CCN(Cc2ccc(Nc3ncc(F)c(-c4cc(F)c5nc(C)n(C(C)C)c5c4)n3)nc2)CC1 + CC(Nc1ncnc2nc[nH]c12)c1cc2cccc(Cl)c2c(=O)n1-c1ccccc1 | 171881-019-R-J1-PDC tumor spheroid viability | % | 111 |
| CC(Cn1ccc(-c2ccc(C#N)c(Cl)c2)n1)NC(=O)c1cc(C(C)O)[nH]n1 (configuration not stated) + COc1c(OCCCN2CCOCC2)ccc2c3n(c(=NC(=O)c4cnc(N)nc4)nc12)CCN3 | 171881-019-R-J1-PDC tumor spheroid viability | % | 1.54 |
| C=CC(=O)N1CCN(c2nc(=O)n(-c3c(C)ccnc3C(C)C)c3nc(-c4c(O)cccc4F)c(F)cc23)C(C)C1 (configuration not stated) + CC(Nc1ncnc2nc[nH]c12)c1cc2cccc(Cl)c2c(=O)n1-c1ccccc1 | 171881-019-R-J1-PDC tumor spheroid viability | % | 98.9 |

Entry CC(C)NCC(C(=O)N1CCN(c2ncnc3c2C(C)CC3O)CC1)c1ccc(Cl)cc1 (configuration not stated) + Cc1nc(NC(=O)N2CCCC2C(N)=O)sc1-c1ccnc(C(C)(C)C(F)(F)F)c1 , tested on 171881-019-R-J1-PDC tumor spheroid viability, has a reported viability, T/C of 38

Entry Cn1ncc(Cl)c1-c1cc(C(=O)NC(CN)Cc2cccc(F)c2)sc1Cl (configuration not stated) + Cc1nc(NC(=O)N2CCCC2C(N)=O)sc1-c1ccnc(C(C)(C)C(F)(F)F)c1 , tested on 171881-019-R-J1-PDC tumor spheroid viability, has a reported viability, T/C of 28.9
